# assaySummary: Tmax in CD1 mouse at 5 mg/kg, po
# Format: ADME, organism-based
# Parameters: dose 5 mg/kg, route oral
# testParameters: in vivo

# smilesStr, Tmax, min
rows = [
    ("COc1cc(-c2ccccc2)nc2cc(-c3nc([C@H]4C[C@@](C)(O)C4)n4ccnc(N)c34)ccc12", 30),
]

----------
# assaySummary: Oral bioavailability in CD1 mouse at 2.5 mg/kg
# Format: ADME, organism-based
# testParameters: plasma

# smilesStr, bioavailability
records = [
    ("CCOc1cc(-c2ccccc2)nc2cc(-c3nc([C@H]4C[C@@](C)(O)C4)n4ccnc(N)c34)ccc12", "63%"),
]
